- Test system: MET
- Condition Notes: concentration: 1 μM, replicates: in singlicate; n = 1
Quantity Kind: %Inh (%)
Express your answer in %, writing the number without its unit.

*Q* # assay system MET: give %Inh of Cc1nnc(-c2ccc3occ(-c4ccc(C(C)O)cc4)c3c2)o1 (centres unmarked)
*A* 5

*Q* # assay system MET: give %Inh of `CN1c2ccc(NCc3ccc(F)cc3)cc2-c2c(cnn2C)S1(=O)=O`
*A* 3

*Q* # assay system MET: give %Inh of `O=c1cc(N2CCOCC2)nc2n(Cc3cccc(C(F)(F)F)c3)ccn12`
*A* 0

*Q* # assay system MET: give %Inh of `COc1cc2c(cc1OC[C@@H](O)CO)ncc1c3ccc(C#N)cc3[nH]c21`
*A* 0

*Q* # assay system MET: give %Inh of `O=C1Cc2cc(Nc3nc(NCc4cccc(S(=O)(=O)C(F)(F)F)c4)ncc3C(F)(F)F)ccc2N1`
*A* 0

*Q* # assay system MET: give %Inh of `Cn1ccc2ncnc(Oc3ccc(NC(=O)Nc4ccncc4)c(Cl)c3)c21`
*A* 0

*Q* # assay system MET: give %Inh of `CC(C)Oc1ccc2c(-c3ccnc(Nc4ccc(N5CCN(C)CC5)cc4)n3)cnn2n1`
*A* 0

*Q* # assay system MET: give %Inh of COc1ccc(CNC(=O)NC2CCN(c3ccnc(Nc4ccc(OC)cc4)n3)C2)cc1 (centres unmarked)
*A* 0

*Q* # assay system MET: give %Inh of `Cl.Nc1ncnc2occ(-c3ccc(NC(=O)Nc4cc(C(F)(F)F)ccc4F)cc3)c12`
*A* 17

*Q* # assay system MET: give %Inh of `O=C(NCCNc1ccnc(Nc2ccc(F)cc2)n1)Nc1ccccc1F`
*A* 0

*Q* # assay system MET: give %Inh of `O=C(NCCCN1CCOCC1)c1cccc(Nc2nccc(Nc3ccc(Oc4ccccc4)cc3)n2)c1`
*A* 0

*Q* # assay system MET: give %Inh of `CN(C(=O)c1ccc(-c2cc(-c3c[nH]nc3-c3ccccn3)ccn2)cc1)C1CCOCC1`
*A* 0

*Q* # assay system MET: give %Inh of `NS(=O)(=O)CCc1cccc(Nc2nccc(-c3c(-c4cccc(NC(=O)c5c(F)cccc5F)c4)nn4ccccc34)n2)c1`
*A* 83

*Q* # assay system MET: give %Inh of COc1ccc(Nc2nccc(N3CCC(NC(=O)Nc4cc(C)ccc4C)C3)n2)cc1 (centres unmarked);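 further: KINOMEscan kinase panel screen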
*A* 0

Where do the numbers come from? From paper PMC5540273.
